Test system: 60 cell line panel
Assay type: cell-based
Conditions: mean value over the 60 cell line panel
readout: Log10TGI50 MG MID (log10M)
State the answer as a number, implicitly in log10M.

Use these answered entries as a reference point.
- CC1CCC2C(C)C(CC(O)(CC3OC4OC5(C)CCC6C(C)CCC(C3C)C46OO5)CS(=O)(=O)c3ccc(C(=O)O)cc3)OC3OC4(C)CCC1C32OO4 (stereo not drawn) [Compound 10c]: −5.51
- C[C@@H]1CC[C@H]2[C@@H](C)C(CC(O)(COC(=O)CCC(=O)O)CC3OC4O[C@]5(C)CC[C@H]6[C@H](C)CC[C@@H]([C@H]3C)C46OO5)OC3O[C@]4(C)CCC1C32OO4 (stereo partly drawn) [Compound 9, tertiary alcohol primary succinate ester]: −4.72

API: the following record is the query input.
Problem: Please give measured Log10TGI50 MG MID of the following entry: CC1CCC2C(C)C(CC(COC(=O)c3cc[n+]([O-])cc3)CC3OC4OC5(C)CCC6C(C)CCC(C3C)C46OO5)OC3OC4(C)CCC1C32OO4 (stereo not drawn)
Result: −5.15

* * *

Reported values of Log10GI50 Range for individual entries
Test system: 60 cell line panel
Format: cell-based
Number, no unit, nothing else.

- CC1CCC2C(C)C(CC(COCC(=O)O)CC3OC4OC5(C)CCC6C(C)CCC(C3C)C46OO5)OC3OC4(C)CCC1C32OO4 (stereo not drawn) [Compound 12b, bis-trioxane O-acetic acid]: 4.00

Problem: Input CC1CCC2C(C)C(CC(COC(=O)c3cc[n+]([O-])cc3)CC3OC4OC5(C)CCC6C(C)CCC(C3C)C46OO5)OC3OC4(C)CCC1C32OO4 (stereo not drawn) , output reported Log10GI50 Range.
Result: 3.22

Problem: Tell me its Log10GI50 Range given CC1CCC2C(C)C(CC(O)(CO)CC3OC4OC5(C)CCC6C(C)CCC(C3C)C46OO5)OC3OC4(C)CCC1C32OO4 (stereo not drawn) as the entry.
Result: 3.47

* * *

System: OVCAR-3
Experiment: NCI 60 cell line panel screen (SRB)
Assay type: cell-based, human
Conditions: OVCAR-3 (Ovarian Cancer); LC50: PG=−50
readout: Log10LC50

Worked cases, answers included:
• CC1CCC2C(C)C(CC(O)(CO)CC3OC4OC5(C)CCC6C(C)CCC(C3C)C46OO5)OC3OC4(C)CCC1C32OO4 (stereo not drawn) [Compound 5, bis-trioxane vicinal diol] = >−4.00 log10M
• C[C@@H]1CC[C@H]2[C@@H](C)C(CC(O)(CC3OC4O[C@]5(C)CC[C@H]6[C@H](C)CC[C@@H]([C@H]3C)C46OO5)c3ccc(C(=O)O)cc3)OC3O[C@]4(C)CCC1C32OO4 (stereo partly drawn) [Compound 11b] = >−4.30 log10M

Then this compound:
Problem: Check the records and state Log10LC50 for CC1CCC2C(C)C(CC(CO)CC3OC4OC5(C)CCC6C(C)CCC(C3C)C46OO5)OC3OC4(C)CCC1C32OO4 (stereo not drawn) [Compound 4, bis-trioxane primary alcohol]
Result: −4.42 log10M

* * *

Test system: HOP-62
Assay: NCI 60 cell line panel screen (SRB)
Assay type: cell-based, human
Settings: HOP-62 (Non-Small Cell Lung Cancer); TGI: PG=0
readout: Log10TGI50 (log10M)
Please state the figure in log10M; there is no need to write the unit.

Problem: Give reported Log10TGI50 for CC1CCC2C(C)C(CC(CO)CC3OC4OC5(C)CCC6C(C)CCC(C3C)C46OO5)OC3OC4(C)CCC1C32OO4 (stereo not shown) (HOP-62)
Result: −4.56

Problem: Retrieve Log10TGI50 on HOP-62; query CC1CCC2C(C)C(CC(O)(CC3OC4OC5(C)CCC6C(C)CCC(C3C)C46OO5)CS(=O)(=O)c3ccc(C(=O)O)cc3)OC3OC4(C)CCC1C32OO4 (stereo not shown) [Compound 10c]
Result: −5.01

* * *

Test system: HCC-2998
Test: NCI 60 cell line panel screen (SRB)
Assay type: cell-based, human
Details: HCC-2998 (Colon Cancer); TGI: PG=0
The entries below are paired with their reported Log10TGI50.
Write the answer as a number in log10M, unit excluded.

Problem: Fill in: Log10TGI50 on HCC-2998, entry CC1CCC2C(C)C(CC(COC(=O)c3cc[n+]([O-])cc3)CC3OC4OC5(C)CCC6C(C)CCC(C3C)C46OO5)OC3OC4(C)CCC1C32OO4 (centres unmarked)
Result: −4.91

Problem: Using HCC-2998 as the test system, report measured Log10TGI50 of CC(=O)O[C@H]1C(=O)[C@@]2(C)[C@H]([C@H](OC(=O)c3ccccc3)[C@]3(O)C[C@H](OC(=O)[C@H](O)[C@@H](NC(=O)c4ccccc4)c4ccccc4)C(C)=C1C3(C)C)[C@]1(OC(C)=O)CO[C@@H]1C[C@@H]2O [Paclitaxel, paclitaxel, reference compound] .
Result: −4.77

Problem: Given CC1CCC2C(C)C(CC(CO)CC3OC4OC5(C)CCC6C(C)CCC(C3C)C46OO5)OC3OC4(C)CCC1C32OO4 (centres unmarked) , report its Log10TGI50 on HCC-2998.
Result: −5.39

Problem: Identify measured Log10TGI50 obtained with HCC-2998 for CC1CCC2C(C)C(CC(O)(CO)CC3OC4OC5(C)CCC6C(C)CCC(C3C)C46OO5)OC3OC4(C)CCC1C32OO4 (centres unmarked) .
Result: −4.23

* * *

Here, each record is paired with measured Log10LC50 data.
Tested on: SW-620
Test: NCI 60 cell line panel screen (SRB)
Type: cell-based, human
Conditions: SW-620 (Colon Cancer); LC50: PG=−50

Worked examples follow.
* CC1CCC2C(C)C(CC(CO)CC3OC4OC5(C)CCC6C(C)CCC(C3C)C46OO5)OC3OC4(C)CCC1C32OO4 (centres unmarked) | −4.44 log10M
* C[C@@H]1CC[C@H]2[C@@H](C)C(=O)O[C@@H]3O[C@]4(C)CC[C@@H]1[C@]32OO4 | >−4.00 log10M
* CC1CCC2C(C)C(CC(O)(CO)CC3OC4OC5(C)CCC6C(C)CCC(C3C)C46OO5)OC3OC4(C)CCC1C32OO4 (centres unmarked) | >−4.00 log10M
* CC(=O)O[C@H]1C(=O)[C@@]2(C)[C@H]([C@H](OC(=O)c3ccccc3)[C@]3(O)C[C@H](OC(=O)[C@H](O)[C@@H](NC(=O)c4ccccc4)c4ccccc4)C(C)=C1C3(C)C)[C@]1(OC(C)=O)CO[C@@H]1C[C@@H]2O [Paclitaxel, paclitaxel, reference compound] | >−4.00 log10M

Could you now look at the following compound, please?
Problem: Look up Log10LC50 of CC1CCC2C(C)C(CC(COC(=O)c3cc[n+]([O-])cc3)CC3OC4OC5(C)CCC6C(C)CCC(C3C)C46OO5)OC3OC4(C)CCC1C32OO4 (centres unmarked) and report it.
Result: −4.53 log10M

* * *

Tested on: OVCAR-5
Assay: NCI 60 cell line panel screen (SRB)
Type: cell-based, human
Settings: OVCAR-5 (Ovarian Cancer); TGI: PG=0
readout: Log10TGI50 (log10M)
Record the value in log10M, omitting the unit from your answer.

Before answering, review these 2 worked examples.
* CC1CCC2C(C)C(CC(CO)CC3OC4OC5(C)CCC6C(C)CCC(C3C)C46OO5)OC3OC4(C)CCC1C32OO4 (stereo not drawn) [Compound 4, bis-trioxane primary alcohol] | −6.42
* CC1CCC2C(C)C(CC(COC(=O)CCC(=O)O)CC3OC4OC5(C)CCC6C(C)CCC(C3C)C46OO5)OC3OC4(C)CCC1C32OO4 (stereo not drawn) [Compound 8a, bis-trioxane primary succinate monoester] | −6.62

Problem: Find the measured Log10TGI50 of CC1CCC2C(C)C(CC(COC(=O)c3cc[n+]([O-])cc3)CC3OC4OC5(C)CCC6C(C)CCC(C3C)C46OO5)OC3OC4(C)CCC1C32OO4 (stereo not drawn) [Compound 13] and report it.
Result: −5.14

Problem: Tell me Log10TGI50 reported for CC1CCC2C(C)C(CC(COCC(=O)O)CC3OC4OC5(C)CCC6C(C)CCC(C3C)C46OO5)OC3OC4(C)CCC1C32OO4 (stereo not drawn) [Compound 12b, bis-trioxane O-acetic acid]
Result: −6.39

* * *

Tested on: MDA-MB231/ATCC
Test: NCI 60 cell line panel screen (SRB)
Format: cell-based, human
Conditions: MDA-MB231/ATCC (Breast Cancer); TGI: PG=0
// NB: equality with -5 log10M counts as 0 (no); only Log10TGI50 strictly below is 1 (yes)

// known answers, use as guide
- C[C@@H]1CC[C@H]2[C@@H](C)C(=O)O[C@@H]3O[C@]4(C)CC[C@@H]1[C@]32OO4: 0 (no)
- CC1CCC2C(C)C(CC(COC(=O)CCC(=O)O)CC3OC4OC5(C)CCC6C(C)CCC(C3C)C46OO5)OC3OC4(C)CCC1C32OO4 (stereo not shown) [Compound 8a, bis-trioxane primary succinate monoester]: 1 (yes)
- CC1CCC2C(C)C(CC(O)(CO)CC3OC4OC5(C)CCC6C(C)CCC(C3C)C46OO5)OC3OC4(C)CCC1C32OO4 (stereo not shown): 0 (no)

Problem: # check: Log10TGI50 < -5 log10M for CC1CCC2C(C)C(CC(CO)CC3OC4OC5(C)CCC6C(C)CCC(C3C)C46OO5)OC3OC4(C)CCC1C32OO4 (stereo not shown)
Result: 0 (no)

Problem: Hello, I'm reviewing records and need to know if Log10TGI50 of CC1CCC2C(C)C(CC(COC(=O)c3cc[n+]([O-])cc3)CC3OC4OC5(C)CCC6C(C)CCC(C3C)C46OO5)OC3OC4(C)CCC1C32OO4 (stereo not shown) is below -5 log10M. Could you check?
Result: 1 (yes)

Problem: Consider CC(=O)O[C@H]1C(=O)[C@@]2(C)[C@H]([C@H](OC(=O)c3ccccc3)[C@]3(O)C[C@H](OC(=O)[C@H](O)[C@@H](NC(=O)c4ccccc4)c4ccccc4)C(C)=C1C3(C)C)[C@]1(OC(C)=O)CO[C@@H]1C[C@@H]2O [Paclitaxel, paclitaxel, reference compound] . Does its Log10TGI50 lie strictly below -5 log10M?
Result: 0 (no)

Problem: Say whether its Log10TGI50 is strictly beneath -5 log10M. Entry: CC1CCC2C(C)C(CC(O)(CC3OC4OC5(C)CCC6C(C)CCC(C3C)C46OO5)CS(=O)(=O)c3ccc(C(=O)O)cc3)OC3OC4(C)CCC1C32OO4 (stereo not shown) [Compound 10c]
Result: 1 (yes)
